experiment: Extensive tissue distribution study in CT26 tumor-bearing mice; format: in vivo, Balb/c mice; conditions: Balb/c, mouse; 75 mg/kg PO; Liver
readout_name: AUC(0-inf) (µg·h/mL)
// return numeric value only (unit: µg·h/mL, not printed)

Qu. So what's the measured AUC(0-inf) for this one? "C[C@@H]1COCCN1c1cc(C2([S@](C)(=N)=O)CC2)nc(-c2cc[nH]c3nccc2-3)n1"
Ans. 293

----------
Assay: Extensive tissue distribution study in CT26 tumor-bearing mice
Type: in vivo, Balb/c mice
Details: Balb/c, mouse; 75 mg/kg PO-ext; plasma; read-out: Tmax (converted)
Experimental: Mice were injected subcutaneously on the right flank with 1x10^6 CT26 cells, a murine colorectal carcinoma cell line from BALB/c mice,obtained from ATCC (Manassas, VA). […] Implantation and tumor growth were monitored twice weekly with a digital caliper. […] For tissue and tumor analysis, samples were homogenized with 3 parts PBS (v/g) and further diluted with control plasma and concentrations determined from calibration curves prepared in control plasma.
readout_name: Tmax
For clarity, give the value followed by its unit.

Qu. So what's the measured Tmax for this one? "C[C@@H]1COCCN1c1cc(C2([S@](C)(=N)=O)CC2)nc(-c2cc[nH]c3nccc2-3)n1"
Ans. 15 min

----------
assay: Extensive tissue distribution study in CT26 tumor-bearing mice; assay type: in vivo, Balb/c mice; conditions: Balb/c, mouse, skeletal muscle; 75 mg/kg PO; Muscle; 0-1440 min; read-out: AUC0-t (converted)
readout_name: AUC(0-t) (ng·h/mL)
// return numeric value only (unit: ng·h/mL, not printed)

Qu. So what's the measured AUC(0-t) for this one? C[C@@H]1COCCN1c1cc(C2([S@](C)(=N)=O)CC2)nc(-c2cc[nH]c3nccc2-3)n1 [AZD6738]
Ans. 41200

----------
test: in vivo; settings: Balb/c, mouse, po, 75 mg/kg
readout_name: AUC(0-inf)

Qu. So what's the measured AUC(0-inf) for this one? C[C@@H]1COCCN1c1cc(C2([S@](C)(=N)=O)CC2)nc(-c2cc[nH]c3nccc2-3)n1 [AZD6738]
Ans. 41600 ng·h/mL

----------
assay: Extensive tissue distribution study in CT26 tumor-bearing mice; format: in vivo, Balb/c mice; conditions: Balb/c, mouse; 75 mg/kg PO-ext; plasma
readout_name: AUC(0-inf) (ng·h/mL)
// return numeric value only (unit: ng·h/mL, not printed)

Qu. So what's the measured AUC(0-inf) for this one? C[C@@H]1COCCN1c1cc(C2([S@](C)(=N)=O)CC2)nc(-c2cc[nH]c3nccc2-3)n1 [AZD6738]
Ans. 39500

----------
assay: Extensive tissue distribution study in CT26 tumor-bearing mice; type: in vivo, Balb/c mice; details: Balb/c, mouse; 75 mg/kg PO; Heart; read-out: Cmax
readout_name: Cmax (ng/mL)
// return numeric value only (unit: ng/mL, not printed)

Qu. So what's the measured Cmax for this one? "C[C@@H]1COCCN1c1cc(C2([S@](C)(=N)=O)CC2)nc(-c2cc[nH]c3nccc2-3)n1"
Ans. 19400

----------
assay: Extensive tissue distribution study in CT26 tumor-bearing mice; format: in vivo, Balb/c mice; conditions: Balb/c, mouse; 75 mg/kg PO-ext; plasma; read-out: AUC0-360 (converted)
readout_name: AUC(0-t) (ng·h/mL)
// return numeric value only (unit: ng·h/mL, not printed)

Qu. So what's the measured AUC(0-t) for this one? C[C@@H]1COCCN1c1cc(C2([S@](C)(=N)=O)CC2)nc(-c2cc[nH]c3nccc2-3)n1 [AZD6738]
Ans. 39500

----------
test: Extensive tissue distribution study in CT26 tumor-bearing mice; format: in vivo, Balb/c mice; conditions: Balb/c, mouse, liver / plasma, oral, 75 mg/kg, 75 mg/kg PO; Liver to plasma AUC; read-out: Partition Coefficient
readout_name: Kp
Please reply with the number alone, leaving off any unit.

Qu. So what's the measured Kp for this one? "C[C@@H]1COCCN1c1cc(C2([S@](C)(=N)=O)CC2)nc(-c2cc[nH]c3nccc2-3)n1"
Ans. 7.42

----------
assay: in vivo; details: Balb/c, mouse, po, 20 mg/kg
readout_name: bioavailability
For clarity, give the value followed by its unit.

Qu. So what's the measured bioavailability for this one? "C[C@@H]1COCCN1c1cc(C2([S@](C)(=N)=O)CC2)nc(-c2cc[nH]c3nccc2-3)n1"
Ans. 85.5%

----------
experiment: Extensive tissue distribution study in CT26 tumor-bearing mice; type: in vivo, Balb/c mice; conditions: Balb/c, mouse; 75 mg/kg PO; Small Intestine; read-out: Tmax (converted)
readout_name: Tmax (min)
// return numeric value only (unit: min, not printed)

Qu. So what's the measured Tmax for this one? "C[C@@H]1COCCN1c1cc(C2([S@](C)(=N)=O)CC2)nc(-c2cc[nH]c3nccc2-3)n1"
Ans. 15

----------
test: in vivo; conditions: Balb/c, mouse, iv, 10 mg/kg
readout_name: Tmax (min)
// return numeric value only (unit: min, not printed)

Qu. So what's the measured Tmax for this one? "C[C@@H]1COCCN1c1cc(C2([S@](C)(=N)=O)CC2)nc(-c2cc[nH]c3nccc2-3)n1"
Ans. 5

----------
experiment: Extensive tissue distribution study in CT26 tumor-bearing mice; assay type: in vivo, Balb/c mice; conditions: Balb/c, mouse; 75 mg/kg PO; Non-draining Lymph Node
readout_name: AUC(0-inf) (ng·h/mL)
// return numeric value only (unit: ng·h/mL, not printed)

Qu. So what's the measured AUC(0-inf) for this one? "C[C@@H]1COCCN1c1cc(C2([S@](C)(=N)=O)CC2)nc(-c2cc[nH]c3nccc2-3)n1"
Ans. 38800

----------
experiment: in vivo; details: Balb/c, mouse, iv, 10 mg/kg
readout_name: Vd (L/kg)
// return numeric value only (unit: L/kg, not printed)

Qu. So what's the measured Vd for this one? C[C@@H]1COCCN1c1cc(C2([S@](C)(=N)=O)CC2)nc(-c2cc[nH]c3nccc2-3)n1 [AZD6738]
Ans. 4.92

----------
assay: Extensive tissue distribution study in CT26 tumor-bearing mice; format: in vivo, Balb/c mice; details: Balb/c, mouse; 75 mg/kg PO; Liver; read-out: Cmax
readout_name: Cmax (µg/mL)
// return numeric value only (unit: µg/mL, not printed)

Qu. So what's the measured Cmax for this one? C[C@@H]1COCCN1c1cc(C2([S@](C)(=N)=O)CC2)nc(-c2cc[nH]c3nccc2-3)n1 [AZD6738]
Ans. 114

----------
test: in vivo; conditions: Balb/c, mouse, po, 75 mg/kg
readout_name: half-life
For clarity, give the value followed by its unit.

Qu. So what's the measured half-life for this one? "C[C@@H]1COCCN1c1cc(C2([S@](C)(=N)=O)CC2)nc(-c2cc[nH]c3nccc2-3)n1"
Ans. 1.93 h

----------
assay: Extensive tissue distribution study in CT26 tumor-bearing mice; type: in vivo, Balb/c mice; conditions: Balb/c, mouse; 75 mg/kg PO; Bone Marrow; 0-360 min; read-out: AUC0-t (converted)
readout_name: AUC(0-t)
For clarity, give the value followed by its unit.

Qu. So what's the measured AUC(0-t) for this one? "C[C@@H]1COCCN1c1cc(C2([S@](C)(=N)=O)CC2)nc(-c2cc[nH]c3nccc2-3)n1"
Ans. 133 µg·h/mL

----------
assay: Extensive tissue distribution study in CT26 tumor-bearing mice; assay type: in vivo, Balb/c mice; settings: Balb/c, mouse; 75 mg/kg PO; Brain; read-out: Tmax (converted)
readout_name: Tmax (min)
// return numeric value only (unit: min, not printed)

Qu. So what's the measured Tmax for this one? "C[C@@H]1COCCN1c1cc(C2([S@](C)(=N)=O)CC2)nc(-c2cc[nH]c3nccc2-3)n1"
Ans. 15

----------
assay: Extensive tissue distribution study in CT26 tumor-bearing mice; format: in vivo, Balb/c mice; conditions: Balb/c, mouse; 75 mg/kg PO; CT26 Tumor; read-out: Cmax
readout_name: Cmax (µg/mL)
// return numeric value only (unit: µg/mL, not printed)

Qu. So what's the measured Cmax for this one? "C[C@@H]1COCCN1c1cc(C2([S@](C)(=N)=O)CC2)nc(-c2cc[nH]c3nccc2-3)n1"
Ans. 10.1

----------
assay: Extensive tissue distribution study in CT26 tumor-bearing mice; assay type: in vivo, Balb/c mice; conditions: Balb/c, mouse; 75 mg/kg PO; CT26 Tumor; read-out: Tmax (converted)
readout_name: Tmax
For clarity, give the value followed by its unit.

Qu. So what's the measured Tmax for this one? "C[C@@H]1COCCN1c1cc(C2([S@](C)(=N)=O)CC2)nc(-c2cc[nH]c3nccc2-3)n1"
Ans. 30 min

----------
Assay: Extensive tissue distribution study in CT26 tumor-bearing mice
Type: in vivo, Balb/c mice
Settings: Balb/c, mouse, lung; 75 mg/kg PO; Lungs; read-out: Tmax (converted)
Method: Mice were injected subcutaneously on the right flank with 1x10^6 CT26 cells, a murine colorectal carcinoma cell line from BALB/c mice,obtained from ATCC (Manassas, VA). […] Implantation and tumor growth were monitored twice weekly with a digital caliper. […] For tissue and tumor analysis, samples were homogenized with 3 parts PBS (v/g) and further diluted with control plasma and concentrations determined from calibration curves prepared in control plasma.
readout_name: Tmax (min)
// return numeric value only (unit: min, not printed)

Qu. So what's the measured Tmax for this one? C[C@@H]1COCCN1c1cc(C2([S@](C)(=N)=O)CC2)nc(-c2cc[nH]c3nccc2-3)n1 [AZD6738]
Ans. 15
